Attribution: patent US20250136696A1

Kindly supply the reported IC50 values for the records listed here.
# target-entity: T1, biotinylated human B7-H7 protein (Acro Biosystems, B77-H82F5) (human, UniProt Q9UM44 23-344, biotinylated)
# T1 construct: Bought soluble protein; also called biotin-B7H7 protein
# T1 sequence (looked up): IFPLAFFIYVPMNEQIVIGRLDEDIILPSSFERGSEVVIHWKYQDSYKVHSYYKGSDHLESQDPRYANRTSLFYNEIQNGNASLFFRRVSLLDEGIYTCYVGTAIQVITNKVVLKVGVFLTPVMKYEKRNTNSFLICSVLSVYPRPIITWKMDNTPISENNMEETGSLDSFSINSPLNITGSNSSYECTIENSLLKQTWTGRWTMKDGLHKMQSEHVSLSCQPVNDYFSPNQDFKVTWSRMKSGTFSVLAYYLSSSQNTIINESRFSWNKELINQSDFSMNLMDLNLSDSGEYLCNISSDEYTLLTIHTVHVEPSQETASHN
# assay-protocol: flow cytometry, blocking of biotinylated human B7-H7 binding to HEK-293/CD28H cells
Numbers only, in nM.

{"binder": "PR003260 (antibody, human IgG1, kappa, V domains shown, Human IgG1; also called 70F3B1) VH: QVQLVESGGGVVQPGRSLRLPCAASGFTFSRYGMHWVRQAPGKGLEWVADIWYDGSKKYYADSVKGRFTISRDNSKNTLYLQMNSLRAEDTAVYFCTRDGGYSYGPFDYWGQGTLVTVSS VL: EIVMTQSPATLSVSPGERATLSCRASQSVSSNLAWYQQKPGQAPRLLIYYASTRAPGIPARFSGSESGTEFTLTISSLQSEDFAVYYCQQYNIWPYTFGQGTKLEIKR", "reported-value": 2.47}

IC50 recorded for this binder, PR003263 (antibody, human IgG1, kappa, V domains shown, Human IgG1; also called 77E6C4) VH: QVQLVESGGGVVQPGRSLRLSCAASGFTFSYYGLNWVRQAPGKGLEWVAVIWFDGTNKYYADSVKGRFTISRDDSKNTLYLQMNSLRAEDTAVYYCARGYGSGSYYNYVMDAWGQGASVTVSS VL: EIVMTQSPATLSVSPGERATLSCRASQSVSSNLAWYQQKPGQAPRLLIYGASTGATGIPARFSGSGSGTDFTLTISSLQSEDFAVYYCQQYYKWPLTFGGGTKVEIKR , is 1.7
